Molecular target: HDAC3 (Homo sapiens)
Construct: purchased Reaction Biology Corporation (assay run by the CRO)
Sequence (O15379 whole entry): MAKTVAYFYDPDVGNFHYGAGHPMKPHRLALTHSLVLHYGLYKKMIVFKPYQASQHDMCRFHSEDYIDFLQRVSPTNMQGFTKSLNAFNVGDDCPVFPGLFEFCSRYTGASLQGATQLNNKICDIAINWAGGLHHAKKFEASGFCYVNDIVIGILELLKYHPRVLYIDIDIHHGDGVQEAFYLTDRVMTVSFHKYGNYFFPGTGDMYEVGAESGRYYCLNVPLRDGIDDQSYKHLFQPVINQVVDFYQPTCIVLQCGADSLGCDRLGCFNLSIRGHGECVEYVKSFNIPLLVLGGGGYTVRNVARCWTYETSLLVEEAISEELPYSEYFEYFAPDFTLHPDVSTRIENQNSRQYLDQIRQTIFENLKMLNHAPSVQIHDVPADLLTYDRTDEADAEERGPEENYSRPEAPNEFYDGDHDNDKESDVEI
Sequence (Q9Y618 395-489 partner limits assumed): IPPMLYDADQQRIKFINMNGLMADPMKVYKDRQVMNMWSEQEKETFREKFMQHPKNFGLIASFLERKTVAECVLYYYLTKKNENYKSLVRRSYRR
Assay: HDAC3 inhibition, full IC50 measurement (Reaction Biology; fluorogenic p53 peptide RHKK(Ac)AMC)
Format: biochemical
Settings: Conc. 1.11E-06 M, t2
Experimental: The assay was performed using 50 μM fluorogenic peptide from p53 residues 379-382 [RHKK(Ac)AMC] in a base reaction buffer of 50 mM Tris-HCl at pH 8.0, 137 mM NaCl, 2.7 mM KCl, 1 mM MgCl2, and freshly added 1 mg/ml BSA and 1% DMSO. […] Peptide concentrations were calculated based on mass of lyophilized peptide and its molecular weight. […]
Peptide text beside a SMILES is read from it.
HDAC3 activity raw data (signal) overview
propertyLabel: HDAC3 activity raw data (signal)

INSERT INTO assay_data (molecule, propertylabel, measurement) VALUES
  ('CCCC[C@H]1NC(=O)[C@H](Cc2ccccc2)NC(=O)[C@H](CCCCCS)NC(=O)[C@@H](CCCNC(=N)N)NC(=O)[C@H](CC(=O)O)NC(=O)[C@@H](CO)NC(=O)[C@@H](C)NC(=O)[C@H](CCCCN)NC1=O [des4.3.1, SHA-Phe-dNle-Lys-dAla-dSer-Asp-dArg] (HELM PEPTIDE1{D.[dR].[O=C([C@H](CCCCCS)N[*:1])[*:2]].F.[CCCC[C@@H](N[*:1])C(=O)[*:2]].K.[dA].[dS]}$PEPTIDE1,PEPTIDE1,1:R1-8:R2$$$V2.0)', 'HDAC3 activity raw data (signal)', 416274),
  ('N=C(N)NCCC[C@@H]1NC(=O)[C@H](Cc2c[nH]c3ccccc23)NC(=O)[C@H](CC(=O)O)NC(=O)[C@@H](CO)NC(=O)[C@H](Cc2c[nH]c3ccccc23)NC(=O)[C@H](CCCCCS)NC(=O)[C@H](CCC(N)=O)NC1=O [des4.1.0, SHA-Trp-dSer-Asp-Trp-Arg-Gln] (HELM PEPTIDE1{D.W.R.Q.[O=C([C@H](CCCCCS)N[*:1])[*:2]].W.[dS]}$PEPTIDE1,PEPTIDE1,1:R1-7:R2$$$V2.0)', 'HDAC3 activity raw data (signal)', 53052),
  ('NCCCC[C@@H]1NC(=O)[C@@H]2CCCN2C(=O)[C@H](CC(N)=O)NC(=O)[C@H](CCCCCS)NC(=O)CNC(=O)[C@H](Cc2c[nH]c3ccccc23)NC(=O)[C@@H](CCCCN)NC(=O)[C@H](CCC(N)=O)NC1=O [des1.1.0, SHA-Asn-Pro-Lys-Gln-dLys-Trp-Gly] (HELM PEPTIDE1{G.[O=C([C@H](CCCCCS)N[*:1])[*:2]].N.P.K.Q.[dK].W}$PEPTIDE1,PEPTIDE1,1:R1-8:R2$$$V2.0)', 'HDAC3 activity raw data (signal)', 66090);

###

biological target: HDAC2 (Homo sapiens, UniProt Q92769); construct: purchased Reaction Biology Corporation (assay run by the CRO); test: Initial HDAC2 IC50 estimate (BPS Biosciences HDAC fluorogenic assay kit); assay type: biochemical; settings: HDAC2 activity (initial activity), Supplementary Dataset 2
Sequence (Q92769 whole entry): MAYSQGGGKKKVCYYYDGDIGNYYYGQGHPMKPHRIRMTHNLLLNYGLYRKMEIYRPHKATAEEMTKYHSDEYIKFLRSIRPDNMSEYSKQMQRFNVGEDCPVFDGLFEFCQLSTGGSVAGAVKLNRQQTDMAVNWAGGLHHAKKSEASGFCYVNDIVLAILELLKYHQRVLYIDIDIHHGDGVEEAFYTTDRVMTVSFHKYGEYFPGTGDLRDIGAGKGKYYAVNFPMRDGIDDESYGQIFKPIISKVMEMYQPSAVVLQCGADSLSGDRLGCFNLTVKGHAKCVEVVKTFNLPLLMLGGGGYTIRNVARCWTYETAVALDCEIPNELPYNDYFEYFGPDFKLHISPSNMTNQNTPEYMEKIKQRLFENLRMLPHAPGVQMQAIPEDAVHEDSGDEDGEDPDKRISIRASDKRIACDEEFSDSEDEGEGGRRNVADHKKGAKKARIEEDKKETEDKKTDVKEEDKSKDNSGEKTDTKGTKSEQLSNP
Peptide text beside a SMILES is read from it.
propertyLabel: IC50 (nM)

INSERT INTO results (compound, boundoperator, measurement) VALUES
  ('N=C(N)NCCC[C@H]1NC(=O)[C@H]2CCCN2C(=O)[C@@H](Cc2c[nH]cn2)NC(=O)[C@H](Cc2ccc(O)cc2)NC(=O)[C@H](CCCCCS)NC(=O)[C@H](CCc2ccccc2)NC(=O)[C@H]2CCCN2C(=O)[C@H](CC(=O)O)NC(=O)[C@@H]2CCCN2C1=O [des3.2.3, SHA-Tyr-dHis-dPro-dArg-Pro-Asp-dPro-C27] (HELM PEPTIDE1{D.[dP].[O=C([C@H](CCc1ccccc1)N[*:1])[*:2]].[O=C([C@H](CCCCCS)N[*:1])[*:2]].Y.[dH].[dP].[dR].P}$PEPTIDE1,PEPTIDE1,1:R1-9:R2$$$V2.0)', '=', 92),
  ('CC(C)C[C@@H]1NC(=O)[C@@H](CCC(=O)O)NC(=O)[C@@H](CC(N)=O)NC(=O)[C@@H](Cc2c[nH]cn2)NC(=O)[C@H](CCCCCS)NC(=O)[C@H](Cc2ccc3ccccc3c2)NC(=O)[C@H](CCCNC(=N)N)NC(=O)[C@@H]2CCCN2C(=O)[C@@H](C)NC1=O [des3.8.0, SHA-dHis-dAsn-dGlu-Leu-dAla-Pro-Arg-B74] (HELM PEPTIDE1{[O=C([C@H](Cc1ccc2ccccc2c1)N[*:1])[*:2]].[O=C([C@H](CCCCCS)N[*:1])[*:2]].[dH].[dN].[dE].L.[dA].P.R}$PEPTIDE1,PEPTIDE1,1:R1-9:R2$$$V2.0)', '>', 1000),
  ('CC(C)C[C@H]1NC(=O)[C@H](Cc2c[nH]c3ccccc23)NC(=O)[C@H](CCCCCS)NC(=O)[C@@H](Cc2ccc(O)cc2)NC(=O)[C@@H]([C@H](C)O)NC(=O)[C@H](Cc2c[nH]cn2)NC(=O)CNC(=O)[C@H]2CCCN2C(=O)[C@@H](CO)NC1=O [des2.2.2, SHA-Trp-dLeu-dSer-dPro-Gly-His-dThr-dTyr] (HELM PEPTIDE1{G.H.[dT].[dY].[O=C([C@H](CCCCCS)N[*:1])[*:2]].W.[dL].[dS].[dP]}$PEPTIDE1,PEPTIDE1,1:R1-9:R2$$$V2.0)', '=', 500),
  ('C[C@H]1NC(=O)[C@H](CCCCCS)NC(=O)[C@H](CCN)NC(=O)[C@@H](CC(N)=O)NC(=O)[C@H](CO)NC(=O)[C@H](CC(=O)O)NC(=O)[C@@H](CC(=O)O)NC(=O)[C@@H]2CCCN2C(=O)[C@H](Cc2ccccc2)NC1=O [des3.5.1, SHA-dAla-Phe-Pro-dAsp-Asp-Ser-dAsn-Dab] (HELM PEPTIDE1{D.S.[dN].[Dab].[O=C([C@H](CCCCCS)N[*:1])[*:2]].[dA].F.P.[dD]}$PEPTIDE1,PEPTIDE1,1:R1-9:R2$$$V2.0)', '>', 1000),
  ('NCCCC[C@@H]1NC(=O)[C@@H]2CCCN2C(=O)[C@H](CC(N)=O)NC(=O)[C@H](CCCCCS)NC(=O)CNC(=O)[C@H](Cc2c[nH]c3ccccc23)NC(=O)[C@@H](CCCCN)NC(=O)[C@H](CO)NC1=O [des1.1.4, SHA-Asn-Pro-Lys-Ser-dLys-Trp-Gly] (HELM PEPTIDE1{G.[O=C([C@H](CCCCCS)N[*:1])[*:2]].N.P.K.S.[dK].W}$PEPTIDE1,PEPTIDE1,1:R1-8:R2$$$V2.0)', '=', 100),
  ('C[C@H]1NC(=O)[C@H](CCCNC(=N)N)NC(=O)[C@@H](CC(N)=O)NC(=O)[C@@H](CC(N)=O)NC(=O)[C@H](CCC(=O)O)NC(=O)[C@@H](CC(=O)O)NC(=O)[C@@H](CC(N)=O)NC(=O)[C@H](CCCCCS)NC1=O [des1.3.0, SHA-dAsn-dAsp-Glu-dAsn-dAsn-Arg-dAla] (HELM PEPTIDE1{E.[dN].[dN].R.[dA].[O=C([C@H](CCCCCS)N[*:1])[*:2]].[dN].[dD]}$PEPTIDE1,PEPTIDE1,1:R1-8:R2$$$V2.0)', '=', 1000),
  ('C[C@H]1NC(=O)[C@@H](Cc2c[nH]cn2)NC(=O)[C@H](CCCCCS)NC(=O)[C@H](Cc2c[nH]c3ccccc23)NC(=O)[C@@H](CCCNC(=N)N)NC(=O)[C@@H]2CCCN2C(=O)[C@@H](CC(N)=O)NC(=O)[C@@H](CC(N)=O)NC(=O)[C@H](Cc2ccc(O)cc2)NC1=O [des3.6.0, SHA-dHis-dAla-Tyr-dAsn-dAsn-Pro-dArg-Trp] (HELM PEPTIDE1{P.[dR].W.[O=C([C@H](CCCCCS)N[*:1])[*:2]].[dH].[dA].Y.[dN].[dN]}$PEPTIDE1,PEPTIDE1,1:R1-9:R2$$$V2.0)', '>', 1000);

###

target: HDAC2 (Homo sapiens, UniProt Q92769); construct: purchased Reaction Biology Corporation (assay run by the CRO); experiment: HDAC2 inhibition, full IC50 measurement (Reaction Biology; fluorogenic p53 peptide RHKK(Ac)AMC); format: biochemical; conditions: Conc. 1.23E-07 M, t2
Peptide text beside a SMILES is read from it.
propertyLabel: HDAC2 activity raw data (signal)

INSERT INTO assay_data (molecule, measurement) VALUES
  ('N=C(N)NCCC[C@H]1NC(=O)[C@@H]2CCCN2C(=O)[C@H](CO)NC(=O)[C@@H](Cc2c[nH]cn2)NC(=O)[C@H](CCCCCS)NC(=O)[C@H](CCCCN)NC(=O)[C@H](Cc2ccc(O)cc2)NC(=O)[C@H]2CCCN2C(=O)[C@@H](CCC(N)=O)NC1=O [des3.1.0, SHA-dHis-Ser-Pro-dArg-dGln-dPro-Tyr-Lys] (HELM PEPTIDE1{K.[O=C([C@H](CCCCCS)N[*:1])[*:2]].[dH].S.P.[dR].[dQ].[dP].Y}$PEPTIDE1,PEPTIDE1,1:R1-9:R2$$$V2.0)', 873444),
  ('CC(C)C[C@H]1NC(=O)[C@H](Cc2c[nH]c3ccccc23)NC(=O)[C@H](CCCCCS)NC(=O)[C@@H](Cc2ccc(O)cc2)NC(=O)[C@@H](C(C)C)NC(=O)[C@H](Cc2c[nH]cn2)NC(=O)CNC(=O)CNC(=O)[C@@H](CO)NC1=O [des2.2.0, SHA-Trp-dLeu-dSer-Gly-Gly-His-dVal-dTyr] (HELM PEPTIDE1{G.G.H.[dV].[dY].[O=C([C@H](CCCCCS)N[*:1])[*:2]].W.[dL].[dS]}$PEPTIDE1,PEPTIDE1,1:R1-9:R2$$$V2.0)', 1005687),
  ('CCCC[C@H]1NC(=O)[C@H](Cc2ccccc2)NC(=O)[C@H](CCCCCS)NC(=O)[C@@H](CCCNC(=N)N)NC(=O)[C@H](C)NC(=O)[C@@H](CO)NC(=O)[C@@H](C)NC(=O)[C@H](CCCCN)NC1=O [des4.3.1.3, SHA-Phe-dNle-Lys-dAla-dSer-Ala-dArg] (HELM PEPTIDE1{A.[dR].[O=C([C@H](CCCCCS)N[*:1])[*:2]].F.[CCCC[C@@H](N[*:1])C(=O)[*:2]].K.[dA].[dS]}$PEPTIDE1,PEPTIDE1,1:R1-8:R2$$$V2.0)', 1600746),
  ('CCCC[C@H]1NC(=O)[C@H](Cc2ccccc2)NC(=O)[C@H](CCCCCS)NC(=O)[C@@H](CCCNC(=N)N)NC(=O)[C@H](CC(=O)O)NC(=O)[C@@H](CO)NC(=O)[C@@H](C)NC(=O)[C@H](CCCCN)NC1=O [des4.3.1, SHA-Phe-dNle-Lys-dAla-dSer-Asp-dArg] (HELM PEPTIDE1{D.[dR].[O=C([C@H](CCCCCS)N[*:1])[*:2]].F.[CCCC[C@@H](N[*:1])C(=O)[*:2]].K.[dA].[dS]}$PEPTIDE1,PEPTIDE1,1:R1-8:R2$$$V2.0)', 1073616),
  ('N=C(N)NCCC[C@@H]1NC(=O)[C@H](Cc2c[nH]c3ccccc23)NC(=O)[C@H](CC(=O)O)NC(=O)[C@@H](CO)NC(=O)[C@H](Cc2c[nH]c3ccccc23)NC(=O)[C@H](CCCCCS)NC(=O)[C@H](CCC(N)=O)NC1=O [des4.1.0, SHA-Trp-dSer-Asp-Trp-Arg-Gln] (HELM PEPTIDE1{D.W.R.Q.[O=C([C@H](CCCCCS)N[*:1])[*:2]].W.[dS]}$PEPTIDE1,PEPTIDE1,1:R1-7:R2$$$V2.0)', 734242),
  ('NCCCC[C@@H]1NC(=O)[C@@H]2CCCN2C(=O)[C@H](CC(N)=O)NC(=O)[C@H](CCCCCS)NC(=O)CNC(=O)[C@H](Cc2c[nH]c3ccccc23)NC(=O)[C@@H](CCCCN)NC(=O)[C@H](CCC(N)=O)NC1=O [des1.1.0, SHA-Asn-Pro-Lys-Gln-dLys-Trp-Gly] (HELM PEPTIDE1{G.[O=C([C@H](CCCCCS)N[*:1])[*:2]].N.P.K.Q.[dK].W}$PEPTIDE1,PEPTIDE1,1:R1-8:R2$$$V2.0)', 802228);
